molecular target: T1, His-tagged PCSK9Δhelix (human, UniProt Q8NBP7 31-152; Q8NBP7 168-692); experiment: TR-FRET competition; His-PCSK9Δhelix, competitor Ab20
T1 construct: Construct M1-Q692 with engineered TEV site, cut by TEV protease; new N-terminus of the catalytic domain is S-A168; also called His-PCSK9Δhelix
T1 sequence (Q8NBP7 31-152, stated change not applied, chain 1 of 2): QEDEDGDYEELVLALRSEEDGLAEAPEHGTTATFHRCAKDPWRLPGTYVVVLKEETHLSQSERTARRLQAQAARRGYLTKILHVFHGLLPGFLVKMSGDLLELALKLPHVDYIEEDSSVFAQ
T1 sequence (Q8NBP7 other isoform, or with tags, fused parts or gaps mutant, chain 2 of 2): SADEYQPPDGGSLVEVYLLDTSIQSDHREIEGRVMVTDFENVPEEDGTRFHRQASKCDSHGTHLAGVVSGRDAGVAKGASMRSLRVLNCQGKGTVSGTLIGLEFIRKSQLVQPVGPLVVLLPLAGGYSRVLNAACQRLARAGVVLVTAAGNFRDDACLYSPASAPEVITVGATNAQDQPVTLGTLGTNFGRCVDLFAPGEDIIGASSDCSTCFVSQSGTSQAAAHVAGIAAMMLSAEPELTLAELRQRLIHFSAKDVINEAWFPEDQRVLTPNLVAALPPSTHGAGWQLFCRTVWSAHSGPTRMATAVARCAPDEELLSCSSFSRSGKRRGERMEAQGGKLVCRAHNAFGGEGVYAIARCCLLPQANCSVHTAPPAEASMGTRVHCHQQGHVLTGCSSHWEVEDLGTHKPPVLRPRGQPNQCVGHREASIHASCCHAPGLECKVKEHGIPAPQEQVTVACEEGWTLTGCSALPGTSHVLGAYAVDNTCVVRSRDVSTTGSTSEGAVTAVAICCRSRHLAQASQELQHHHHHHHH
Square brackets hold non-standard residues; d marks the D form. Ends that are not written are not given here. * marks the point of attachment. hArg = N=C(N)NCCCC[C@H](N)C(=O)O; Pentanoyl = CCCCC(=O)*
Listed here are binders together with their documented IC50.
Test Readout: IC50 (µM)

binder="Pentanoyl-WNLV[hArg]IGLTR-NH2 (SMILES CCCCC(=O)N[C@@H](Cc1c[nH]c2ccccc12)C(=O)N[C@@H](CC(N)=O)C(=O)N[C@@H](CC(C)C)C(=O)N[C@H](C(=O)N[C@@H](CCCCNC(=N)N)C(=O)N[C@H](C(=O)NCC(=O)N[C@@H](CC(C)C)C(=O)N[C@H](C(=O)N[C@@H](CCCNC(=N)N)C(N)=O)[C@@H](C)O)[C@@H](C)CC)C(C)C, also called n-BuC(O)-WNLV(homoR)IGLTR-NH2) [Compound 234]" display_unit=µM obs_value=1.4
binder="Pentanoyl-WNLVRIGLGR-NH2 (SMILES CCCCC(=O)N[C@@H](Cc1c[nH]c2ccccc12)C(=O)N[C@@H](CC(N)=O)C(=O)N[C@@H](CC(C)C)C(=O)N[C@H](C(=O)N[C@@H](CCCNC(=N)N)C(=O)N[C@H](C(=O)NCC(=O)N[C@@H](CC(C)C)C(=O)NCC(=O)N[C@@H](CCCNC(=N)N)C(N)=O)[C@@H](C)CC)C(C)C) [Compound 179]" display_unit=µM obs_value=11
binder="WNLVRIGLLR (also: further groups not given here, Structure printed only as a drawing) [Compound 138]" display_unit=µM obs_value=4.9
binder="WNLV[hArg]IGLLR (also: further groups not given here, Structure printed only as a drawing) [Compound 217]" display_unit=µM obs_value=0.39
